Cited source: the NIST ThermoML archive (doi:10.1016/j.jct.2015.07.046)

For each record, write down the corresponding activity coefficient.
# assay details: activity coefficient (dimensionless); of the first substance listed, at infinite dilution; xn = mol fraction of the nth substance listed
# details: 313.15 K; 101.3 kPa; Liquid; Chromatography; x1 = 0

input: Looking for the measured activity coefficient of CCCCC [pentane] + CCn1cc[n+](C)c1.COP(=O)([O-])OC , can you help?
output: 125

input: Again, but for C1=CCCCC1 [cyclohexene] + CCn1cc[n+](C)c1.COP(=O)([O-])OC
output: 25.4

input: CCCCCCC [heptane] + COP(=O)([O-])OC.Cn1cc[n+](C)c1 ?
output: 297
